Data origin: paper PMC8698721

Give MBC for every item shown.
System: K. pneumoniae (ATCC 43816)
Format: cell-based, Klebsiella pneumoniae
setup_conditions: ATCC 43816, 24 h
Where a SMILES comes first, the peptide text is derived from it.
Your answer should be a plain number; it is taken to be in µM.

*Q* Fill in the blank: the reported MBC of CC[C@H](C)[C@H](NC(=O)[C@H](CCCCN)NC(=O)[C@H](CCCCN)NC(=O)[C@H](Cc1c[nH]c2ccccc12)NC(=O)[C@H](CC(C)C)NC(=O)CN)C(=O)N[C@@H](CCCCN)C(=O)N[C@@H](CC(N)=O)C(=O)N[C@H](C(=O)N[C@@H](C)C(=O)N[C@@H](CCCCN)C(=O)N[C@@H](C)C(=O)N[C@@H](C)C(=O)NCC(=O)N[C@@H](CCCCN)C(=O)N[C@@H](C)C(=O)N[C@@H](C)C(=O)N[C@@H](CCCCN)C(=O)NCC(=O)N[C@@H](C)C(=O)N[C@@H](CC(C)C)C(N)=O)C(C)C [t-DPH1-6K] (H-GLWKKIKNVAKAAGKAAKGAL-NH2) is ____.
*A* 8

*Q* Fill in the blank: the reported MBC of CC[C@H](C)[C@H](NC(=O)[C@H](CCCCN)NC(=O)[C@H](CCCCN)NC(=O)[C@H](Cc1c[nH]c2ccccc12)NC(=O)[C@H](CC(C)C)NC(=O)CN)C(=O)N[C@@H](CCCCN)C(=O)N[C@@H](CC(N)=O)C(=O)N[C@H](C(=O)N[C@@H](C)C(=O)N[C@@H](C)C(=O)N[C@@H](C)C(=O)N[C@@H](C)C(=O)NCC(=O)N[C@@H](CCCCN)C(=O)N[C@@H](C)C(=O)N[C@@H](C)C(=O)N[C@@H](CC(C)C)C(=O)NCC(=O)N[C@@H](C)C(=O)N[C@@H](CC(C)C)C(N)=O)C(C)C [t-DPH1-K4] (H-GLWKKIKNVAAAAGKAALGAL-NH2) is ____.
*A* 4

*Q* Fill in the blank: the reported MBC of CC[C@H](C)[C@H](NC(=O)[C@H](CCCCN)NC(=O)[C@H](CO)NC(=O)[C@H](Cc1c[nH]c2ccccc12)NC(=O)[C@H](CC(C)C)NC(=O)CN)C(=O)N[C@@H](CCCCN)C(=O)N[C@@H](CC(N)=O)C(=O)N[C@H](C(=O)N[C@@H](C)C(=O)N[C@@H](C)C(=O)N[C@@H](C)C(=O)N[C@@H](C)C(=O)NCC(=O)N[C@@H](CCCCN)C(=O)N[C@@H](C)C(=O)N[C@@H](C)C(=O)N[C@@H](CC(C)C)C(=O)NCC(=O)N[C@@H](C)C(=O)N[C@@H](CC(C)C)C(N)=O)C(C)C [t-DPH1] (H-GLWSKIKNVAAAAGKAALGAL-NH2) is ____.
*A* 16

*Q* Fill in the blank: the reported MBC of CC[C@H](C)[C@H](NC(=O)[C@H](CCCCN)NC(=O)[C@H](CCCCN)NC(=O)[C@H](Cc1c[nH]c2ccccc12)NC(=O)[C@H](CC(C)C)NC(=O)CN)C(=O)N[C@@H](CCCCN)C(=O)N[C@@H](CC(N)=O)C(=O)N[C@H](C(=O)N[C@@H](C)C(=O)N[C@@H](CCCCN)C(=O)N[C@@H](C)C(=O)N[C@@H](C)C(=O)NCC(=O)N[C@@H](CCCCN)C(=O)N[C@@H](C)C(=O)N[C@@H](C)C(=O)N[C@@H](CC(C)C)C(=O)NCC(=O)N[C@@H](C)C(=O)N[C@@H](CC(C)C)C(N)=O)C(C)C [t-DPH1-5K] (H-GLWKKIKNVAKAAGKAALGAL-NH2) is ____.
*A* 4
